Entries annotated with measured IC50
- Test system: P. falciparum Dd2
- ASSAY_EXPLANATION: In vitro antiplasmodial pLDH assay, chloroquine-resistant strain Dd2
- Type: cell-based
- CONDITION_INFO: Plasmodium falciparum; chloroquine-resistant strain Dd2; 48 h; pLDH; mean of three independent experiments; read-out: IC50 against Dd2
Give a bare numeral; the unit nM is implied.

CCc1c(OCc2ccccc2)c(=O)ccn1CCCCCCNc1ccnc2cc(Cl)ccc12
76

Alright, here's another molecule for you.
Query O=c1cc(CNCCCCCCNc2ccnc3cc(Cl)ccc23)n(C2CC2)cc1OCc1ccccc1 yields IC50 of 463

---

- Test system: P. falciparum K1
- ASSAY_EXPLANATION: In vitro antiplasmodial pLDH assay, chloroquine-resistant strain K1
- Format: cell-based
- CONDITION_INFO: Plasmodium falciparum; chloroquine-resistant strain K1; 48 h; pLDH; mean of three independent experiments; read-out: IC50 against K1
OBSERVATION_TYPE: IC50 (nM)
Give a bare numeral; the unit nM is implied.

CCc1c(OCc2ccccc2)c(=O)ccn1CCCCCCNc1ccnc2cc(Cl)ccc12
89

Record O=c1cc(CNCCCCCCNc2ccnc3cc(Cl)ccc23)n(C2CC2)cc1OCc1ccccc1 has P. falciparum K1 IC50 equal to 505
